# tested_on: human sodium channels Nav 1.8 (Homo sapiens)
# test: Automated whole-cell voltage-clamp (ScreenPatch 384P) sodium current block, Nav 1.8
# assay_setup: CHO cells stably expressing human Nav 1.8; inactivation step -40 mV for 8 seconds, test step 10 mV (TP1A); exposure at least five minutes; room temperature; mean if two or more assays; read-out: Nav1.8 IC50
measured_endpoint: IC50

Use the examples below as a reference point.
>>> observed("CCOc1ccc(-c2cncc(C(=O)NOCc3[nH]ccc3C)n2)cn1")
"< 500 nM"
>>> observed("O=C(NOCc1ccccn1)c1cncc(-c2ccc(OC(F)(F)F)nc2)n1")
"< 500 nM"
>>> observed("CCOc1ccc(-c2cncc(C(=O)NOCc3cc(OC)ccc3C3CC3)n2)cc1")
"< 500 nM"
>>> observed("COc1ccc(F)c(CONC(=O)c2cncc(-c3ccc(OCC4CNC4)cc3)n2)c1")
"> 1000 nM"
>>> observed("CCOc1ccc(-c2cncc(C(=O)NOCc3cc(OC)ccc3F)n2)c(OC)c1")
"< 500 nM"
>>> observed("COc1ccc(F)c(CONC(=O)c2cncc(-c3ccc(OC(F)(F)F)nc3)n2)c1")
"< 500 nM"

Lab book: IC50 of CCOc1ccc(-c2cncc(C(=O)NOCc3cc(OC)ncc3F)n2)cn1 noted as < 500 nM

Lab book: IC50 of CCOc1ccc(-c2cncc(C(=O)NOCc3cc(OC)ncc3F)n2)cc1 noted as < 500 nM

Lab book: IC50 of COc1cncc(CONC(=O)c2cncc(-c3ccc(OC(F)F)cc3)n2)c1 noted as < 500 nM

* * *

Listed here: items and their measured IC50.
# tested_on: human sodium channels Nav 1.8 (Homo sapiens, UniProt Q9Y5Y9)
# Sequence (Q9Y5Y9 whole entry): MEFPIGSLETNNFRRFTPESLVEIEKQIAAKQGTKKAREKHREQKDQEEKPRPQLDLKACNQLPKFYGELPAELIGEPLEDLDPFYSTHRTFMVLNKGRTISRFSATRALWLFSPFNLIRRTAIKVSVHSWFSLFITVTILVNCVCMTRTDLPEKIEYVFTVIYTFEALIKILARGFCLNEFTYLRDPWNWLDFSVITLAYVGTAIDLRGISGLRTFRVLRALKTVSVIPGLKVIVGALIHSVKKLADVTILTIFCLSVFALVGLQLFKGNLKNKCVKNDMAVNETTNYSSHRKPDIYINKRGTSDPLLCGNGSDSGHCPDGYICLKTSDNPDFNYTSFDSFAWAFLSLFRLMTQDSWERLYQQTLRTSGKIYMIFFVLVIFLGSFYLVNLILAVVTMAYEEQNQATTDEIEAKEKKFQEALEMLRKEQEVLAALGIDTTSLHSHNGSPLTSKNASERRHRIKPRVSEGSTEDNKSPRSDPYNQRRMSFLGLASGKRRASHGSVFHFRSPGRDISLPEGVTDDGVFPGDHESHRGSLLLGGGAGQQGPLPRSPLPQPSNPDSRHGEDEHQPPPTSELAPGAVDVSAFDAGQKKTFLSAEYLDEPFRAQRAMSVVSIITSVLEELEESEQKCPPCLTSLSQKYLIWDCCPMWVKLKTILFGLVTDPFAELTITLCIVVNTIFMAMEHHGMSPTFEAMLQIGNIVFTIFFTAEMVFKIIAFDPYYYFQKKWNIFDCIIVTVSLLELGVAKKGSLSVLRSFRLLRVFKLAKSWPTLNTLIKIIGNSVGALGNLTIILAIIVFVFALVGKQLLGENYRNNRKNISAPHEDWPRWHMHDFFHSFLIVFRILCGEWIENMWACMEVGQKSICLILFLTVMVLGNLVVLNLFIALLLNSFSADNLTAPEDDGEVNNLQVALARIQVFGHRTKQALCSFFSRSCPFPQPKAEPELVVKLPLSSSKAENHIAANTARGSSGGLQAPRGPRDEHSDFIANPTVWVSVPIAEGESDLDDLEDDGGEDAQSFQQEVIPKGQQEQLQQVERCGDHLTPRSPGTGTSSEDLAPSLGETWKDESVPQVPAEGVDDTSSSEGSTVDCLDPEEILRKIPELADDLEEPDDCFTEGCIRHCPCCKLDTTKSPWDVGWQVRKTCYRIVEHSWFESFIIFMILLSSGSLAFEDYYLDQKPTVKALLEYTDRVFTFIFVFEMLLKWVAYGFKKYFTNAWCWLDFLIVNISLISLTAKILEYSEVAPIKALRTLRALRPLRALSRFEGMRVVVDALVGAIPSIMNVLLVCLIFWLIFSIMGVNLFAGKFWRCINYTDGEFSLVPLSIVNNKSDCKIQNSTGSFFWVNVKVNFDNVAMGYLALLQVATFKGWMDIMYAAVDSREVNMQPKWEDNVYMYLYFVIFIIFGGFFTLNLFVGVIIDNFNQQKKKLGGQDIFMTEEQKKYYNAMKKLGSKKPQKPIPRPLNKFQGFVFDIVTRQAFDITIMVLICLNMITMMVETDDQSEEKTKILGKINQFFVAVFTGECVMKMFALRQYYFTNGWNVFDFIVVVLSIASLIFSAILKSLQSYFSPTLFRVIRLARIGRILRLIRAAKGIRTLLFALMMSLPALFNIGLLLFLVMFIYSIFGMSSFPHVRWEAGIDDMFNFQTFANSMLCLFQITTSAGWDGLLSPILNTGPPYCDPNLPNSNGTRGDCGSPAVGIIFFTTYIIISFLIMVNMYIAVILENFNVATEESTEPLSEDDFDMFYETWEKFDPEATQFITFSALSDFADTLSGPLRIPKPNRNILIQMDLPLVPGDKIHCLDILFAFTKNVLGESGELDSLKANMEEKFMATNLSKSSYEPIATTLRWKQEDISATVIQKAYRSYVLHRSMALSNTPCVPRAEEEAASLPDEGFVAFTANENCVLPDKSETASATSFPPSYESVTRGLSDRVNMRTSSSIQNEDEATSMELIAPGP
# test: Automated whole-cell voltage-clamp (ScreenPatch 384P) sodium current block, Nav 1.8
# assay_setup: CHO cells stably expressing human Nav 1.8; inactivation step -40 mV for 8 seconds, test step 10 mV (TP1A); exposure at least five minutes; room temperature; mean if two or more assays; read-out: Nav1.8 IC50

Use the examples below as a reference point.
>>> observed("CCOc1ccc(-c2cncc(C(=O)NOCc3cc(OC)ccc3Cl)n2)cc1 [Compound 11]")
"< 500 nM"
>>> observed("O=C(NOCc1ccncc1)c1cncc(-c2ccc(OC(F)(F)F)nc2)n1 [Compound 75]")
"< 500 nM"
>>> observed("CCOc1ccc(-c2cncc(C(=O)NOCc3cc(OC)ccc3F)n2)cc1 [Compound 9]")
"< 500 nM"

Form field, IC50 with human sodium channels Nav 1.8 (Homo sapiens, UniProt Q9Y5Y9), item CCOc1ccc(-c2cncc(C(=O)NOCc3ccccc3O)n2)cc1 [Compound 6] : > 1000 nM

Form field, IC50 with human sodium channels Nav 1.8 (Homo sapiens, UniProt Q9Y5Y9), item CCOc1ccc(-c2cncc(C(=O)NOCc3cc(OC)ccc3F)n2)c(OC)n1 [Compound 94] : > 1000 nM

Form field, IC50 with human sodium channels Nav 1.8 (Homo sapiens, UniProt Q9Y5Y9), item [2H]C([2H])([2H])Oc1ccc(F)c(CONC(=O)c2cncc(-c3ccc(OC(F)F)nc3)n2)c1 [Compound 83] : > 1000 nM

Form field, IC50 with human sodium channels Nav 1.8 (Homo sapiens, UniProt Q9Y5Y9), item CCOc1ccc(-c2cncc(C(=O)NOCc3ccccc3F)n2)cn1 [Compound 32] : 500 to 1000 nM

Form field, IC50 with human sodium channels Nav 1.8 (Homo sapiens, UniProt Q9Y5Y9), item CCOc1ccc(-c2cnc(F)c(C(=O)NOCc3cc(OC)ccc3F)n2)cn1 [Compound 105] : 500 to 1000 nM

Form field, IC50 with human sodium channels Nav 1.8 (Homo sapiens, UniProt Q9Y5Y9), item CCOc1ccc(-c2cccc(C(=O)NOCc3cc(OC)cnc3F)n2)cn1 [Compound 107] : > 1000 nM

Value source: patent EP4660184A1
